- Tested on: NCI-H358 human non-small cell lung cancer
- ASSAY: NCI-H358 CCK-8 proliferation assay
- Assay type: cell-based
- CONDITION INFO: NCI-H358 cells, 72 hr
pEC50: −log10 of the molar value.
// values below are reported pEC50

Example entries and their recorded answers appear below.
SMILES RECORD | TEST SYSTEM | pEC50
CC(=O)N1CCN(c2nc(NCCC(=O)NCc3ccc(-n4c(O)nnc4-c4cc(C)c(O)cc4O)cc3)nc3c2CCN(c2cc(O)cc4ccccc24)C3)CC1 | NCI-H358 human non-small cell lung cancer | < 6.00
C=CC(=O)N1CCN(c2nc(NCCC(=O)NCCc3ccc(-n4c(O)nnc4-c4cc(C(C)C)c(O)cc4O)cc3)nc3c2CCN(c2cc(O)cc4ccccc24)C3)CC1 | NCI-H358 human non-small cell lung cancer | < 6.00
C=CC(=O)N1CCN(c2nc(NCCC(=O)N3CCC(CN4CCN(Cc5ccc(-n6c(O)nnc6-c6ccc(O)cc6O)cc5)CC4)CC3)nc3c2CCN(c2cc(O)cc4ccccc24)C3)CC1 | NCI-H358 human non-small cell lung cancer | < 6.00
C=CC(=O)N1CCN(c2nc(NCCC(=O)N3CCC(CN4CCN(Cc5ccc(-n6c(C(N)=O)nnc6-c6cc(CC)c(O)cc6O)cc5)CC4)CC3)nc3c2CCN(c2cccc4ccccc24)C3)C[C@H]1CC#N | NCI-H358 human non-small cell lung cancer | 6.00 to 7.00

We now examine a further compound.
What value of measured pEC50 is listed for CC(=O)N1CCN(c2nc(NCCC(=O)N3CCC(Cc4ccc(CN(C)Cc5ccc(-n6c(C(=O)NCC(F)(F)F)nnc6-c6cc(C)c(O)cc6O)cc5)cc4)CC3)nc3c2CCN(c2cc(O)cc4ccccc24)C3)CC1 ?
< 6.00

###

Catalogue of EC50 values
- Tested on: NCI-H358 human non-small cell lung cancer
- ASSAY: NCI-H358 CCK-8 proliferation assay
- Format: cell-based
- CONDITION INFO: NCI-H358 cells, 72 hr

In the examples that follow, each entry is paired with its recorded EC50.
SMILES RECORD | EC50
C=CC(=O)N1CCN(c2nc(NCCC(=O)N3CCC(CN4CCN(Cc5ccc(-n6c(C(N)=O)nnc6-c6cc(CC)c(O)cc6O)cc5)CC4)CC3)nc3c2CCN(c2cc(O)cc4ccccc24)C3)CC1 | 100 to 1000 nM
CC(=O)N1CCN(c2nc(NCCC(=O)NCc3ccc(-n4c(O)nnc4-c4cc(C(C)C)c(O)cc4O)cc3F)nc3c2CCN(c2cc(O)cc4ccccc24)C3)CC1 | > 1000 nM
C=CC(=O)N1CCN(c2nc(NCCC(=O)NCCOCCOCCN[C@@H](C)C(=O)N[C@H](C(=O)N3CCC[C@H]3C(=O)Nc3snnc3-c3ccccc3)C3CCCCC3)nc3c2CCN(c2cc(O)cc4ccccc24)C3)CC1 | > 1000 nM

From here, focus on the item given below.
Need EC50, item CCc1cc(-c2nnc(C(N)=O)n2-c2ccc(CN3CCN(CC4CCN(C(=O)CCNc5nc6c(c(N7CCN(C(C)=O)CC7)n5)CCN(c5cc(O)cc7ccccc57)C6)CC4)CC3)cc2)c(O)cc1O
100 to 1000 nM

###

- TEST SYSTEM: KRAS(G12C) (Homo sapiens, UniProt P01116, G12C)
- Sequence (P01116 1-188 isoform P01116-2 G12C): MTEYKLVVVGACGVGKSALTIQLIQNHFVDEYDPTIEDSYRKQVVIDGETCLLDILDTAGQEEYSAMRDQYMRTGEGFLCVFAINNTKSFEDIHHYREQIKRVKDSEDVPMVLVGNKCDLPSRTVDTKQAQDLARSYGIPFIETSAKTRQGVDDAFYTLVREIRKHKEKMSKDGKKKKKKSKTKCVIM
- ASSAY: KRAS(G12C) Western blot protein degradation assay in LU65A cells
- Type: cell-based
- Set-up: LU65A human lung cancer cell line, which expresses KRAS(G12C); host or cells: LU65A
- CONDITION INFO: 6 hr
ASSAY METRIC: DC50

These recorded examples may help you get a feel for the data.
SMILES RECORD | DC50
C=CC(=O)N1CCN(c2nc(OC[C@@H]3C[C@@H](N(C)C(=O)C4CCN(Cc5ccc(-n6c(C(=O)NCC(F)(F)F)nnc6-c6cc(C(C)C)c(O)cc6O)cc5)CC4)CN3C)nc3c2CCN(c2cccc4cccc(Cl)c24)C3)C[C@@H]1CC#N | > 1000 nM
C=CC(=O)N1CCN(c2nc(OCCN3CCC(N4CCN(Cc5ccc(-n6c(O)nnc6-c6cc(C(C)C)c(O)cc6O)cc5)CC4)CC3)nc3c2CCN(c2cccc4cccc(Cl)c24)C3)C[C@@H]1CC#N | > 1000 nM
C=CC(=O)N1CCN(c2nc(OC[C@@H]3C[C@H](N4CCC(C(=O)N5CCN(Cc6ccc(-n7c(C(=O)NCC(F)(F)F)nnc7-c7cc(C)c(O)cc7O)cc6)CC5)CC4)CN3C)nc3c2CCN(c2cccc4cccc(Cl)c24)C3)C[C@@H]1CC#N | > 1000 nM
C=CC(=O)N1CCN(c2nc(OCCN3CCN(C(=O)C4CCN(Cc5ccc(-n6c(C(N)=O)nnc6-c6cc(C(C)C)c(O)cc6O)cc5)CC4)CC3)nc3c2CCN(c2cccc4cccc(Cl)c24)C3)C[C@@H]1CC#N | 100 to 1000 nM
C=CC(=O)N1CCN(c2nc(OC[C@@H]3C[C@H](C(=O)NCCOCCOc4ccc(-n5c(O)nnc5-c5cc(CC)c(O)cc5O)cc4)CN3C)nc3c2CCN(c2cccc4cccc(Cl)c24)C3)C[C@@H]1CC#N | 100 to 1000 nM
C=CC(=O)N1CCN(c2nc(OC[C@@H]3C[C@H](N4CCC5(CCN(Cc6ccc(-n7c(O)nnc7-c7cc(C(C)C)c(O)cc7O)cc6)CC5)CC4)CN3C)nc3c2CCN(c2cccc4cccc(Cl)c24)C3)C[C@@H]1CC#N | 100 to 1000 nM

What value of measured DC50 is listed for C=CC(=O)N1CCN(c2nc(OC[C@@H]3C[C@H](N4CCC(C(=O)N5CCC6(CC5)CN(Cc5ccc(-n7c(O)nnc7-c7cc(C(C)C)c(O)cc7O)cc5)C6)CC4)CN3C)nc3c2CCN(c2cccc4cccc(Cl)c24)C3)C[C@@H]1CC#N ?
100 to 1000 nM

Recorded DC50 for C=CC(=O)N1CCN(c2nc(OCCN3CCC(N4CCN(Cc5ccc(-n6c(O)nnc6-c6cc(C)c(O)cc6O)cc5)CC4)CC3)nc3c2CCN(c2cccc4cccc(Cl)c24)C3)C[C@@H]1CC#N , please?
> 1000 nM

Looking for the measured DC50 of C=CC(=O)N1CCN(c2nc(OC[C@@H]3C[C@H](C(=O)N4CC5(CCN(Cc6ccc(-n7c(O)nnc7-c7cc(C(C)C)c(O)cc7O)cc6)CC5)C4)CN3C)nc3c2CCN(c2cccc4cccc(Cl)c24)C3)C[C@@H]1CC#N , can you help?
> 1000 nM

# get_value(readout='DC50', item= C=CC(=O)N1CCN(c2nc(OCCN3CCN(Cc4ccc(-n5c(O)nnc5-c5cc(C)c(O)cc5O)cc4)CC3)nc3c2CCN(c2cccc4cccc(Cl)c24)C3)C[C@@H]1CC#N )
> 1000 nM

Which DC50 is reported for this compound? C=C(F)C(=O)N1CCN(c2nc(OC[C@@H]3CC[C@H](CN4CCN(Cc5ccc(-n6c(C(=O)NCC)nnc6-c6cc(C(C)C)c(O)cc6O)cc5)CC4)N3C)nc3c2CCN(c2cccc4ccccc24)C3)C[C@@H]1CC#N
> 1000 nM
